Tested on: Liver
Assay: Metabolic stability in CD-1 mouse liver microsomes assessed as parent compound remaining at 1 uM after 1 hr
Format: ADME, microsome
property.measured: Stability (%)

Use the examples below as a reference point.
INSERT INTO measurements (structure_string, test_result) VALUES
  ('O=[N+]([O-])c1cn2c(n1)OC[C@@H](OCc1ccn(-c3ccc(OC(F)(F)F)cc3)n1)C2', 67),
  ('O=[N+]([O-])c1cn2c(n1)OC[C@H](NCc1ccc(OC(F)(F)F)cc1)C2', 61),
  ('O=[N+]([O-])c1cn2c(n1)OC[C@H](OCc1ccc(OC(F)(F)F)cc1)C2', 86);

A: O=[N+]([O-])c1cn2c(n1)OC[C@H](OCc1ccc(-c3ccc(F)cc3)cn1)C2
B: O=[N+]([O-])c1cn2c(n1)OC[C@H](OCc1ccc(-c3ccc(OC(F)(F)F)cc3F)nc1)C2
(Q) Between A and B , whose recorded Stability is greater? Write down the label attached to your selection.
(A) A

* * *

Test: Clearance in golden Syrian hamster at 2 mg/kg, iv by LC-MS/MS analysis
Type: ADME, organism-based, Mesocricetus auratus
Settings: in vivo
property.measured: clearance (mL/min/kg)

INSERT INTO measurements (structure_string, property_measured, uom, test_result) VALUES
  ('O=[N+]([O-])c1cn2c(n1)OC[C@H](OCc1ccc(-c3ccc(F)cc3F)nc1)C2', 'clearance', 'mL/min/kg', 59);

1: O=[N+]([O-])c1cn2c(n1)OC[C@H](OCc1ccc(-c3ccc(F)cc3F)cn1)C2
2: O=[N+]([O-])c1cn2c(n1)OC[C@H](OCc1ccc(-c3ccc(OC(F)(F)F)cc3)cn1)C2
(Q) Decide: 1 or 2 , by lowest recorded clearance. Write down the label attached to your selection.
(A) 2

A: O=[N+]([O-])c1cn2c(n1)OC[C@H](OCc1ccc(-c3ccc(OC(F)(F)F)cc3F)nc1)C2
B: O=[N+]([O-])c1cn2c(n1)OC[C@H](OCc1ccc(-c3ccc(OC(F)(F)F)cc3F)cn1)C2
(Q) Between A and B , whose recorded clearance is greater? Write down the label attached to your selection.
(A) B

* * *

Assay: Tmax in golden Syrian hamster at 50 mg/kg, po by LC-MS/MS analysis
Assay type: ADME, organism-based, Mesocricetus auratus
Settings: in vivo
property.measured: Tmax (h)

1: O=[N+]([O-])c1cn2c(n1)OC[C@H](Oc1ccc(C(F)(F)F)cn1)C2
2: O=[N+]([O-])c1cn2c(n1)OC[C@H](OCc1ccc(-c3ccc(F)cc3F)nc1)C2
(Q) Decide: 1 or 2 , by lowest recorded Tmax. Write down the label attached to your selection.
(A) 2

* * *

Reported values of AUC(0-t) for individual entries
Assay: AUClast in Sprague-Dawley rat at 1 mg/kg, iv after 24 to 48 hrs by LC-MS/MS analysis
Format: ADME, organism-based
Details: in vivo
Give the value, in units of ng·h/mL, as a plain number.

(Q) Give its AUC(0-t) value. Item: `O=[N+]([O-])c1cn2c(n1)OC[C@H](Oc1ccc(OC(F)(F)F)cc1)C2`
(A) 1510

(Q) Give its AUC(0-t) value. Item: `O=[N+]([O-])c1cn2c(n1)OC[C@H](Oc1ccc(C(F)(F)F)cn1)C2`
(A) 2470

* * *

System: Liver
Experiment: Metabolic stability in CD-1 mouse liver microsomes assessed as parent compound remaining at 1 uM after 1 hr
Format: ADME, microsome
property.measured: Stability (%)

1: O=[N+]([O-])c1cn2c(n1)OC[C@H](OCc1ccc(-c3ccc(OC(F)(F)F)cc3F)cn1)C2
2: O=[N+]([O-])c1cn2c(n1)OC[C@H](OCc1ccc(-c3ccc(F)cc3F)nc1)C2
3: O=[N+]([O-])c1cn2c(n1)OC[C@H](OCc1ccc(-c3ccc(OC(F)(F)F)cc3Cl)cn1)C2
4: O=[N+]([O-])c1cn2c(n1)OC[C@H](OCc1ncccc1-c1ccc(OC(F)(F)F)cc1)C2
(Q) Task for the reader: place the compounds above in descending order according to recorded Stability. The reply should contain the labels ordered as requested.
(A) 2, 1, 3, 4
(2: 67%, 1: 40%, 3: 27%, 4: 0.2%)

* * *

Experiment: Metabolic stability in hamster liver microsomes assessed as parent compound remaining at 0.5 uM after 0.5 hr
Format: ADME, microsome
Conditions: read-out: Stability
property.measured: remaining at 0.5 h, 0.5 µM (%)

INSERT INTO assay_data (molecule, test_result) VALUES
  ('O=[N+]([O-])c1cn2c(n1)OC[C@H](OCc1ccc(-c3ccc(OC(F)(F)F)cc3F)cn1)C2', 69),
  ('O=[N+]([O-])c1cn2c(n1)OC[C@H](OCc1ccc(-c3ccc(OC(F)F)cc3)cn1)C2', 45),
  ('O=[N+]([O-])c1cn2c(n1)OC[C@@H](OCc1ccc(-c3ccc(OC(F)(F)F)cc3Cl)cn1)C2', 75);

1: O=[N+]([O-])c1cn2c(n1)OCC(COc1ccc(-c3ccc(F)cc3)nc1)C2 (stereo unspecified)
2: O=[N+]([O-])c1cn2c(n1)OC[C@H](OCc1ccc(-c3ccc(F)cc3)cn1)C2
(Q) Decide: 1 or 2 , by lowest recorded remaining at 0.5 h, 0.5 µM. Write down the label attached to your selection.
(A) 2

a: O=C(Nc1ccccc1OC(F)(F)F)N[C@@H]1COc2nc([N+](=O)[O-])cn2C1
b: O=[N+]([O-])c1cn2c(n1)OC[C@H](OCc1cccc(-c3ccc(OC(F)(F)F)cc3)n1)C2
(Q) Decide: a or b , by lowest recorded remaining at 0.5 h, 0.5 µM. Write down the label attached to your selection.
(A) b

I: O=[N+]([O-])c1cn2c(n1)OC[C@@H](OCc1ccc(-c3ccc(OC(F)F)cc3)cn1)C2
II: O=[N+]([O-])c1cn2c(n1)OC[C@@H](OCc1cccc(-c3ccc(OC(F)(F)F)cc3)n1)C2
(Q) Between I and II , whose recorded remaining at 0.5 h, 0.5 µM is greater? Write down the label attached to your selection.
(A) I

* * *

Test: Clearance in Sprague-Dawley rat at 1 mg/kg, iv by LC-MS/MS analysis
Format: ADME, organism-based
Settings: in vivo
property.measured: clearance (mL/min/kg)
Give the value, in units of mL/min/kg, as a plain number.

INSERT INTO assay_data (structure_string, test_result) VALUES
  ('O=[N+]([O-])c1cn2c(n1)OC[C@H](Oc1ccc(OC(F)(F)F)cc1)C2', 11);

(Q) Give its clearance value. Item: `O=[N+]([O-])c1cn2c(n1)OC[C@H](Oc1ccc(C(F)(F)F)cn1)C2`
(A) 6.1

* * *

Assay: AUClast in Sprague-Dawley rat at 40 mg/kg, po after 24 to 48 hrs by LC-MS/MS analysis
Type: ADME, organism-based
Settings: in vivo
property.measured: AUC(0-t) (µg·h/mL)
Give the value, in units of µg·h/mL, as a plain number.

(Q) Give its AUC(0-t) value. Item: `O=[N+]([O-])c1cn2c(n1)OC[C@H](Oc1ccc(C(F)(F)F)cn1)C2`
(A) 164

* * *

Assay: Half life in golden Syrian hamster at 40 mg/kg, po by LC-MS/MS analysis
Type: ADME, organism-based, Mesocricetus auratus
Conditions: in vivo
property.measured: half-life (h)

Use the examples below as a reference point.
INSERT INTO measurements (structure_string, test_result) VALUES
  ('O=[N+]([O-])c1cn2c(n1)OC[C@H](OCc1ccc(-c3ccc(OC(F)(F)F)cc3F)cn1)C2', 3.9),
  ('O=[N+]([O-])c1cn2c(n1)OC[C@H](Oc1ccc(OC(F)(F)F)cc1)C2', 2.2),
  ('O=[N+]([O-])c1cn2c(n1)OC[C@H](OCc1ccc(-c3ccc(OC(F)(F)F)cc3F)nc1)C2', 5.8);

I: O=[N+]([O-])c1cn2c(n1)OC[C@H](OCc1ccc(-c3ccc(OC(F)(F)F)cc3)cn1)C2
II: O=[N+]([O-])c1cn2c(n1)OC[C@H](OCc1ccc(-c3ccc(F)cc3F)cn1)C2
(Q) Decide: I or II , by lowest recorded half-life. Write down the label attached to your selection.
(A) II

* * *

Tested on: Liver
Assay: Metabolic stability in human liver microsomes assessed as parent compound remaining at 0.5 uM after 0.5 hr
Type: ADME, microsome
property.measured: Stability (%)

INSERT INTO results (molecule, system, property_measured, test_result) VALUES
  ('O=[N+]([O-])c1cn2c(n1)OC[C@@H](OCc1cccc(-c3ccc(F)cc3)n1)C2', 'Liver', 'Stability', 96),
  ('O=[N+]([O-])c1cn2c(n1)OC[C@@H](OCc1ccc(-c3ccc(OC(F)(F)F)cc3Cl)cn1)C2', 'Liver', 'Stability', 73),
  ('O=[N+]([O-])c1cn2c(n1)OCC(COc1ccc(OC(F)(F)F)cc1)C2 (centres undefined)', 'Liver', 'Stability', 78),
  ('O=[N+]([O-])c1cn2c(n1)OC[C@H](OCc1ccc(-c3ccc(F)cc3)cn1)C2', 'Liver', 'Stability', 85),
  ('O=[N+]([O-])c1cn2c(n1)OC[C@H](OCc1ccc(-c3ccc(OC(F)(F)F)cc3Cl)cn1)C2', 'Liver', 'Stability', 65),
  ('O=[N+]([O-])c1cn2c(n1)OC[C@H](OCc1cccc(-c3ccc(OC(F)(F)F)cc3)n1)C2', 'Liver', 'Stability', 68),
  ('O=C(Nc1ccccc1OC(F)(F)F)N[C@@H]1COc2nc([N+](=O)[O-])cn2C1', 'Liver', 'Stability', 74),
  ('O=[N+]([O-])c1cn2c(n1)OC[C@H](OCc1ccc(-c3ccc(OC(F)F)cc3)cn1)C2', 'Liver', 'Stability', 71),
  ('O=[N+]([O-])c1cn2c(n1)OC[C@@H](OCc1ccc(-c3ccc(OC(F)F)cc3)cn1)C2', 'Liver', 'Stability', 92);
